Reference source: PubChem BioAssay (NCI)

tested on: HOP-92 NSCLC; experiment: NCI-60 one-dose screen, 48 h; conditions: 10 µM unless noted
Compounds without any hit were thinned out: in the full panel of roughly 83,000, 20% have a hit. Activity calls are given as the source filed them. How the source made its calls: active means growth percent below 10; inactive means the rest.
Allowed answers: label 1 for active, label 0 for inactive

Q. I would be grateful if you could indicate the recorded call for C/C(=N\NC(=S)Nc1ccc(Br)cc1)c1cc2ccccc2oc1=O .
A. label 0

Q. Now the same for O=c1oc2ccc(-c3ccc(F)cc3F)cc2c(=O)n1-c1cccc(C(F)(F)F)c1
A. label 1

Q. Now the same for CN(c1ccc(F)cc1)S(=O)(=O)c1ccc(-c2cnc(C3CC3)o2)cc1
A. label 0

Q. Now the same for O=C1[C@H]2Cc3c([nH]c4ccccc34)[C@H](c3ccc(Cl)cc3)N2C(=O)CN1C1CCN(Cc2c(Cl)cccc2Cl)CC1
A. label 0

Q. Now the same for C/C(=C(/c1ccc(O)cc1)c1ccc(OCCN2CCCC2)cc1)c1ccc(Cl)cc1
A. label 0

* * *

system: RPMI-8226 leukemia; experiment: NCI-60 one-dose screen, 48 h (100 = growth as untreated, 0 = no growth, -100 = all killed); details: 10 µM unless noted
The panel holds about 83,000 compounds, 20% with a hit somewhere; the sample as a whole holds those more often.
Lab note: compare growth with 30%, writing Met if less and Not met if equal or more.

Here are 5 compounds together with their reported answers.
* C[C@@H]1C[C@H]2C(=O)OCC(NC(=O)[C@H](Cc3cc(F)cc(F)c3)NC(=O)Nc3ccc(Cl)cc3F)C(=O)N3CCC[C@H]3C(=O)N3CCCC[C@H]3C(=O)N[C@@H](C)C(=O)N2C1 (stereo not given in full) | Met
* NC(N)=NS(=O)(=O)c1ccc(N=NC2C(=O)NN(c3ccccc3)C2=O)cc1 (stereo not given) | Not met
* COc1cc(/C=C2\SC(=O)NC2=O)ccc1OCC(=O)Nc1ccc(C(=O)/C=C/c2cc3ccccc3nc2Cl)cc1 | Met
* O=C1c2c(c3c4cccnc4[nH]c3c3ccc4ccccc4c23)C(=O)N1CCN1CCCCC1 | Not met
* O=C(Cn1cc(CN2C(=O)c3ccc([N+](=O)[O-])cc3C2=O)nn1)Nc1ccc(F)cc1Cl | Not met

Q. Threshold test, growth < 30%: O=C(CCCCCCN1CC(=O)N2[C@@H](c3cccc(Br)c3)c3[nH]c4ccccc4c3C[C@H]2C1=O)NO
A. Met

Q. Now the same for C/C(=C(/C)C1CC1CCN(C(=O)c1ccc([N+](=O)[O-])cc1)S(=O)(=O)c1ccc(C)cc1)C1CCCCC1 (stereo not given)
A. Not met

Q. Now the same for COc1ccc2c(ccn2C(=O)N2c3ccccc3Sc3ccccc32)c1
A. Met

* * *

tested on: LOX IMVI melanoma; assay: NCI-60 one-dose screen, 48 h (100 = growth as untreated, 0 = no growth, -100 = all killed); settings: 10 µM unless noted
The panel holds about 83,000 compounds, 20% with a hit somewhere; the sample as a whole holds those more often.
attribute measured: growth (%)
Answers are plain numbers, in %.

Go through the items and report each one's growth.
1. CC(C)C[C@H]1C(=O)O[C@H](C(C)C)C(=O)N(C)[C@@H](C(C)C)C(=O)O[C@H](C(C)C)C(=O)N(C)[C@@H](C(C)C)C(=O)O[C@H](C(C)C)C(=O)N1C
2. CNC(=O)c1cc(Oc2ccc3nc(NC(=O)c4ccc(CN5CCCN(C)CC5)c(C(F)(F)F)c4)sc3c2)ccn1

A.
1. 9.57
2. -81.9
